Source of measurements: patent US20080058383A1

# study_target: androgen receptor (CMV-hAR) in CV-1 cells (Homo sapiens)
# Construct: expressed in transfected cells
# test_summary: AR transactivation assay, antagonist mode (ARAF cells, ALP reporter, presence of 0.1 nM Mibolerone)
# Assay type: cell-based
# setup_conditions: CV-1 cells stably expressing hAR and MMTV-ALP, presence of 0.1 nM Mibolerone, 48 hr; read-out: ARAF IC50
quantity_kind: pIC50
pIC50 here is simply -log10 of the concentration when that concentration is written in mol/L.

Solved entries (count: 3):
Please look up its pIC50: Cc1cc(NC(C)(C)CO)ccc1[N+](=O)[O-] [Example-5]
8.14

Requested field: pIC50. Item: CCCC[C@@H](CO)Nc1ccc([N+](=O)[O-])c(C)n1 [Example-60]
7.56

Could you tell me which pIC50 is on file for Cc1cc(NCCNc2ccc([N+](=O)[O-])cn2)ccc1[N+](=O)[O-] [Example-86] ?
6.46

Next:
Bench note: what pIC50 did CCC[C@@H](CO)Nc1ccc([N+](=O)[O-])cc1Br [Example-106] show?
6.62

Item under review: O=[N+]([O-])c1ccc(N[C@H](CO)CSCc2ccccc2)cc1C(F)(F)F [Example-41] . Reported pIC50?
6.31

----------
# study_target: androgen receptor (CMV-hAR) in CV-1 cells (Homo sapiens)
# Construct: expressed in transfected cells
# test_summary: AR transactivation assay, antagonist mode (ARAF cells, ALP reporter, presence of 0.1 nM Mibolerone)
# Type: cell-based
# setup_conditions: decrease in ALP activity in the presence of 0.1 nM Mibolerone
quantity_kind: ARAF % ANTAGONIST (%)
# output: bare number, implied unit %

Which ARAF % ANTAGONIST reading was recorded for the compound `CC(C)(CO)Nc1ccc([N+](=O)[O-])c(C(F)(F)F)c1` ?
33.1

// ARAF % ANTAGONIST lookup, key: CCC[C@@H](CO)Nc1ccc([N+](=O)O)cc1 [Example-103, (S)-2-(4-Nitro-phenylamino)-pentan-1-ol]
92.9

Dear colleague, I am looking for the recorded ARAF % ANTAGONIST of the following compound: `CCCC[C@@H](CO)Nc1ccc([N+](=O)[O-])c(C)n1`
79.3

I have this compound here, `CC(C)[C@@H](CO)Nc1ccc([N+](=O)[O-])c(C(F)(F)F)c1` , and I need its recorded ARAF % ANTAGONIST.
88.7

Query: ARAF % ANTAGONIST; subject: `N#Cc1ccc(NC2(CO)CCCC2)cc1C(F)(F)F`
95.6

Look up ARAF % ANTAGONIST: `O=[N+]([O-])c1ccc(N[C@H](CO)CSCc2ccccc2)cc1C(F)(F)F`
71.7

Please report the recorded ARAF % ANTAGONIST for `Cc1nc(NC(C)(C)CO)ccc1[N+](=O)[O-]` .
82.5

For the compound CCCC(CO)Nc1ccc([N+](=O)[O-])c(C)c1 (stereo not drawn) , what ARAF % ANTAGONIST is on record?
65.4

----------
# study_target: Recombinant human androgen receptor (hAR) (Homo sapiens)
# Construct: made in house; host or cells: Sf9 insect cells
# test_summary: AR competition binding assay (3H-mibolerone tracer)
# setup_conditions: competition with 3H-Mib, hAR extract from Sf9 cells, +4° C. over night; read-out: AR_LT IC50
quantity_kind: IC50
State the result as a value with its unit after it.

Find the measured IC50: item CCC[C@@H](CO)Nc1ccc([N+](=O)O)cc1 [Example-103, (S)-2-(4-Nitro-phenylamino)-pentan-1-ol] , target or system Recombinant human androgen receptor (hAR) (Homo sapiens).
98.7 nM

Test system Recombinant human androgen receptor (hAR) (Homo sapiens); read-out IC50; what value for CC[C@H](C)[C@@H](CO)Nc1ccc([N+](=O)[O-])c(C)n1 [Example-61] ?
89.3 nM

Recombinant human androgen receptor (hAR) (Homo sapiens) / IC50 / CC(C)[C@@H](CO)Nc1ccc([N+](=O)[O-])c(C(F)(F)F)c1 [Example-30] : value?
113 nM

// moving on: another record for IC50
Request - read-out IC50 | tested on Recombinant human androgen receptor (hAR) (Homo sapiens) | molecule O=[N+]([O-])c1ccc(N[C@H](CO)CSCc2ccccc2)cc1C(F)(F)F [Example-41]
65.1 nM

----------
Let's look at some compounds and their measured ARAF % ANTAGONIST.
# study_target: androgen receptor (CMV-hAR) in CV-1 cells (Homo sapiens)
# Construct: expressed in transfected cells
# Sequence (P10275 1-920): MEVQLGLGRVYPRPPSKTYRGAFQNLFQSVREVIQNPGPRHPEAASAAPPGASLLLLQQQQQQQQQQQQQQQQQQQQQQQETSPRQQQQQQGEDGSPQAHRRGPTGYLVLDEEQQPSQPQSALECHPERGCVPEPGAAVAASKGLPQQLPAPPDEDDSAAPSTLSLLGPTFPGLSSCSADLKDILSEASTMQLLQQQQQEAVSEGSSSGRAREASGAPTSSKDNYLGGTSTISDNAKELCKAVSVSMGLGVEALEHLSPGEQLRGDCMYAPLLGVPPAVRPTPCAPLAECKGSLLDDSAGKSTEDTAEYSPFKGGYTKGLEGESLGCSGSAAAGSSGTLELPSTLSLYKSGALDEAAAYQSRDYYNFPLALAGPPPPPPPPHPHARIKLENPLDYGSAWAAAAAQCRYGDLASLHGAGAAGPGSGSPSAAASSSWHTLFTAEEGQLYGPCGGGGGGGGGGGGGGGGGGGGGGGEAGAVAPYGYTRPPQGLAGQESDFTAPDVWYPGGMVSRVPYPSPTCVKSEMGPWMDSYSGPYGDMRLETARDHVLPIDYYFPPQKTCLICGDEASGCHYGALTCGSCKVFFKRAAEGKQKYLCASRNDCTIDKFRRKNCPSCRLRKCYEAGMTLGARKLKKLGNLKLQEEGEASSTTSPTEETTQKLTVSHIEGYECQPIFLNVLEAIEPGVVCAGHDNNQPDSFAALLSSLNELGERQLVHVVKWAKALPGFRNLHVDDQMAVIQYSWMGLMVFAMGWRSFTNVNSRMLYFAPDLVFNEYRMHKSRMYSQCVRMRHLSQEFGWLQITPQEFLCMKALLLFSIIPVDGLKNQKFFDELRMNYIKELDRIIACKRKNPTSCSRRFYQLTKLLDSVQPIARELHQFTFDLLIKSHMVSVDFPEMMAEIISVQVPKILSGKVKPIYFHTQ
# test_summary: AR transactivation assay, antagonist mode (ARAF cells, ALP reporter, presence of 0.1 nM Mibolerone)
# Format: cell-based
# setup_conditions: decrease in ALP activity in the presence of 0.1 nM Mibolerone

Reported ARAF % ANTAGONIST, compound Cc1nc(N[C@H](CO)CSCc2ccccc2)ccc1[N+](=O)[O-] [Example-65] : ____
89.2%

---
Given the compound Cc1cc(NC(C)(C)CO)ccc1[N+](=O)[O-] [Example-5] , what is its reported ARAF % ANTAGONIST?
61%

Look at this compound and give its reported ARAF % ANTAGONIST. CCC[C@@H](CO)Nc1ccc([N+](=O)[O-])cc1Br [Example-106]
88.2%

Which ARAF % ANTAGONIST reading was recorded for the compound Cc1cc(NCCNc2ccc([N+](=O)[O-])cn2)ccc1[N+](=O)[O-] [Example-86] ?
100%
